# target-or-system: human ACCβ enzyme (Homo sapiens, UniProt O00763)
# Construct: The cloning of the full length human muscle-type ACCβ cDNA and expression in HEK293 cells; made in house; host or cells: HEK293 cells (ATCC CRL-1573), plasmid pRF33D
# Sequence (O00763 whole entry): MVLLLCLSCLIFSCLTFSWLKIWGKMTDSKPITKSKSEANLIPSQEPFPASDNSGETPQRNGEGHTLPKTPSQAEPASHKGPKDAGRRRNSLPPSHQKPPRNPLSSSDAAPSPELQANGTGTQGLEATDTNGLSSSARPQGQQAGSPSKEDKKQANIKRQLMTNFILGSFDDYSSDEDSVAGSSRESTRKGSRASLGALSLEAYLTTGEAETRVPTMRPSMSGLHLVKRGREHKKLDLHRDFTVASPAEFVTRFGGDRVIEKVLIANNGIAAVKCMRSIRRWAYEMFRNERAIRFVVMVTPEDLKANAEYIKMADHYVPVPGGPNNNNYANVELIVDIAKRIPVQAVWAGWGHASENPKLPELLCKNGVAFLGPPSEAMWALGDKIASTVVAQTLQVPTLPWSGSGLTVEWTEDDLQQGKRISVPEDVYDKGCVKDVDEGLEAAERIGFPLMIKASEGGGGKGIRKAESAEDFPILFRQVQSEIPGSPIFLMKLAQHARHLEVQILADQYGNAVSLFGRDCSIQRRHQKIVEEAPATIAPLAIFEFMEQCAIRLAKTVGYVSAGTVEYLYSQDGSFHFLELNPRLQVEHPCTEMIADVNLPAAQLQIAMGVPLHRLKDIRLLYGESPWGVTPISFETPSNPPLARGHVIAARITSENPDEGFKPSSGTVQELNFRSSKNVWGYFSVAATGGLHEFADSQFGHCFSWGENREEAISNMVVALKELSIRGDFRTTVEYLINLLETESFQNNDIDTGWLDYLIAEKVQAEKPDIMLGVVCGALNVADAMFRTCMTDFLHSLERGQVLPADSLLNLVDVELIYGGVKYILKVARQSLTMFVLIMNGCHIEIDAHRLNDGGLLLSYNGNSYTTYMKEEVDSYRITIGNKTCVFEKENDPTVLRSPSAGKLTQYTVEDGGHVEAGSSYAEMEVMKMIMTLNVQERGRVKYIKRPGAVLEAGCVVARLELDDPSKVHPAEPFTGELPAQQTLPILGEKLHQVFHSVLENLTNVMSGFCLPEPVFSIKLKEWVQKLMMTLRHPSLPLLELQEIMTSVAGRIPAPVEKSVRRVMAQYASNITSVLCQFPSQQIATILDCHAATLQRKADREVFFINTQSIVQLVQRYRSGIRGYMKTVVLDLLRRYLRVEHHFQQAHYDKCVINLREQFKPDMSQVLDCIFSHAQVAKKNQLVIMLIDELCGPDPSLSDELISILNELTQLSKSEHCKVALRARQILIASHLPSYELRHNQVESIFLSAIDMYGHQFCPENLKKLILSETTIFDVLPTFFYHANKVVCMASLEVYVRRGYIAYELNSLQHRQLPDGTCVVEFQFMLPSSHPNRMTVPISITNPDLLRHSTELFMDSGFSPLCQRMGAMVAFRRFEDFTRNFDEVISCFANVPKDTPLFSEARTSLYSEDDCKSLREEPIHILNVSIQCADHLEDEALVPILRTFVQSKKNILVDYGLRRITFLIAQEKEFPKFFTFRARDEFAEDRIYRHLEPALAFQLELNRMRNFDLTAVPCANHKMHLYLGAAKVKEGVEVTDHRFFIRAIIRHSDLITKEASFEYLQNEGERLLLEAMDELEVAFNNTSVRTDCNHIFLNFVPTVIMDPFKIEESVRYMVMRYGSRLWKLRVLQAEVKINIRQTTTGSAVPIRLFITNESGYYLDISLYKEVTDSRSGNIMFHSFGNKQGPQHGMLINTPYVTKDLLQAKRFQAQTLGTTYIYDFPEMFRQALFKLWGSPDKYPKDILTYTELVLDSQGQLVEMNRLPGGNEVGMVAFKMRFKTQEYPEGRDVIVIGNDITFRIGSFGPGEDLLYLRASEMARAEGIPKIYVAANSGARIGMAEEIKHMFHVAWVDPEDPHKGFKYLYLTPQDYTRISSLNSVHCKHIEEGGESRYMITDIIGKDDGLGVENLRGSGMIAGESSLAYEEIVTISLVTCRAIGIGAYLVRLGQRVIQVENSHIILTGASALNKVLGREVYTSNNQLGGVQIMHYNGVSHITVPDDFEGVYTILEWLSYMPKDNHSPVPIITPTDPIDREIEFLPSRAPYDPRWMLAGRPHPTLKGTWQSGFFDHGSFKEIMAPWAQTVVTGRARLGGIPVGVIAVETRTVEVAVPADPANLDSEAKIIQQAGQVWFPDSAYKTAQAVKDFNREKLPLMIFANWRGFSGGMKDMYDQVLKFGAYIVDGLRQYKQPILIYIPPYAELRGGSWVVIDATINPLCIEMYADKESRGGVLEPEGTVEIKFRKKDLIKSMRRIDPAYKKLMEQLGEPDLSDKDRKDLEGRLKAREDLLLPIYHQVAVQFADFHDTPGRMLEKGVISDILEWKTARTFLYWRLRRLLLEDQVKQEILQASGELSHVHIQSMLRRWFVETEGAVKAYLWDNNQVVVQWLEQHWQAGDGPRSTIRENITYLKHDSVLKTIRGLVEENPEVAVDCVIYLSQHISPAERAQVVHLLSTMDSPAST
# test-name: Human ACCβ enzyme activity / inhibition assay (radiometric)
# Type: biochemical
# stated-conditions: purified recombinant human ACCβ, saturating substrate concentrations; read-out: IC50 against purified ACCβ enzyme
attribute-measured: pIC50
Expect pIC50 as a plain number equal to -log10 of the molar concentration.

Data request: Return value of pIC50 for input CO[C@H]1CC(O)CC[C@@H](c2ccccc2)OC(=O)[C@@H](C)C2(O)O[C@H]([C@@H](C)[C@H](O)[C@H]2OC)[C@@H](C)/C=C/[C@H]1O (stereo partly drawn) [Cpd (Ic), Soraphen B 2-α] , no commentary.
Data returned: 5.76

Data request: Answer with reported pIC50 of CO[C@@H]1[C@@H](O)[C@H](C)[C@H]2OC1(O)[C@H](C)C(=O)O[C@H](c1ccccc1)CCCC[C@H](O)[C@H](O)/C=C/[C@@H]2C [Cpd (Ib), Soraphen A 4-α]
Data returned: 6.70
